- System: EpiDerm™ EPI-200-MNA skin tissues
- conditions: % VCC or % BN; lab(s) as stated in the text
measured_endpoint: top/maximum dose tested, limited by excessive or strong cytotoxicity (µg/cm^2)
Give your result in µg/cm^2 as a bare value.

Determine from records and report top/maximum dose tested, limited by excessive or strong cytotoxicity for Nc1ccn([C@@H]2O[C@H](CO)[C@@H](O)[C@@H]2O)c(=O)n1 [Cytosine arabinoside]
48

Determine from records and report top/maximum dose tested, limited by excessive or strong cytotoxicity for `Cc1c(N)cccc1N`
350

Determine from records and report top/maximum dose tested, limited by excessive or strong cytotoxicity for `COc1cc2c(c(OC)c1OC)-c1ccc(OC)c(=O)cc1[C@@H](NC(C)=O)CC2`
0.03

Determine from records and report top/maximum dose tested, limited by excessive or strong cytotoxicity for [Cl][Cd][Cl] [Cadmium chloride (CdCl2), Cadmium chloride]
160

Determine from records and report top/maximum dose tested, limited by excessive or strong cytotoxicity for `COc1cc(/C=C/C(=O)CC(=O)/C=C/c2ccc(O)c(OC)c2)ccc1O`
160

Determine from records and report top/maximum dose tested, limited by excessive or strong cytotoxicity for `Oc1ccc(Cl)cc1Cl`
50

Determine from records and report top/maximum dose tested, limited by excessive or strong cytotoxicity for COc1cc([C@@H]2c3cc4c(cc3[C@@H](O[C@@H]3O[C@@H]5CO[C@@H](C)O[C@H]5[C@H](O)[C@H]3O)[C@H]3COC(=O)[C@H]23)OCO4)cc(OC)c1O [Etoposide]
1.6

Determine from records and report top/maximum dose tested, limited by excessive or strong cytotoxicity for `CC(=O)O[C@H]1C(=O)[C@@]2(C)[C@H]([C@H](OC(=O)c3ccccc3)[C@]3(O)C[C@H](OC(=O)[C@H](O)[C@@H](NC(=O)c4ccccc4)c4ccccc4)C(C)=C1C3(C)C)[C@]1(OC(C)=O)CO[C@@H]1C[C@@H]2O`
1.6

Determine from records and report top/maximum dose tested, limited by excessive or strong cytotoxicity for COS(C)(=O)=O [Methyl methanesulfonate (MMS), Methyl methanesulfonate]
16

Determine from records and report top/maximum dose tested, limited by excessive or strong cytotoxicity for `Cc1ccc(N)cc1N`
700

Determine from records and report top/maximum dose tested, limited by excessive or strong cytotoxicity for CCOS(C)(=O)=O [Ethyl methanesulfonate (EMS), Ethyl methanesulfonate]
360

Determine from records and report top/maximum dose tested, limited by excessive or strong cytotoxicity for CCCOC(=O)c1cc(O)c(O)c(O)c1 [Propyl gallate]
48

Determine from records and report top/maximum dose tested, limited by excessive or strong cytotoxicity for C1CC2OC2CC1C1CO1 (stereo not drawn) [4-Vinyl-1-cyclohexene diepoxide]
64

----------
- Tested on: EpiDerm™ EPI-200-MNA skin tissues
measured_endpoint: % MN-BN response in individual experiment(s), Lab B, 48-h protocol

{"molecule": "c1ccc2c(c1)ccc1ccccc12 [Phenanthrene]", "assay_target": "EpiDerm™ EPI-200-MNA skin tissues", "reported_value": "negative"}
{"molecule": "CCc1cc(C(N)=S)ccn1 [Ethionamide]", "assay_target": "EpiDerm™ EPI-200-MNA skin tissues", "reported_value": "negative"}

----------
- System: EpiDerm™ EPI-200-MNA skin tissues
- conditions: overall call
Counter-ions that a name gives are not always drawn.
measured_endpoint: classification in the RSMN assay by Lab A

{"compound": "Oc1ccc(Cl)cc1Cl", "reported_value": "negative"}
{"compound": "COC(=O)C1=C(C)NC(C)=C(C(=O)OC)C1c1ccccc1[N+](=O)[O-]", "reported_value": "negative"}
{"compound": "CC1(C)S[C@@H]2[C@H](NC(=O)[C@H](N)c3ccccc3)C(=O)N2[C@H]1C(=O)O [Ampicillin sodium salt]", "reported_value": "negative"}
